compounds and their reported cAMP assay KOR 10 μM
- targetEntity: Kappa opioid receptor (KOR) (Homo sapiens, UniProt P41145); also: unit not given here
- Sequence (P41145 whole entry): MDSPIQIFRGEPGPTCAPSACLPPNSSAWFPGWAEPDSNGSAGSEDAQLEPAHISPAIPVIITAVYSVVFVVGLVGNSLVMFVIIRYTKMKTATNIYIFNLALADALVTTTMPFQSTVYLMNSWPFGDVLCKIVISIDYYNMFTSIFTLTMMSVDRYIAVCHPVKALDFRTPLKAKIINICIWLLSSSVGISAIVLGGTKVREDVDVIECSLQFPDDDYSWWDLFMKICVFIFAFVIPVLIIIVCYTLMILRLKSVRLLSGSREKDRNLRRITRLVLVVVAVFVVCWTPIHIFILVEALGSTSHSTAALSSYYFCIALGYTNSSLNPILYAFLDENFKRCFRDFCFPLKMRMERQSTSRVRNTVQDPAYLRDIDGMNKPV
- assay: cell-based
- Format: cell-based
Square brackets hold non-standard residues; d marks the D form. Peptide text beside a SMILES is read from it. Phe(4-NO2) = N[C@@H](Cc1ccc([N+](=O)[O-])cc1)C(=O)O; Sar = CNCC(=O)O

[[record]]
compound = "CC(C)C[C@H](NC(=O)[C@H](Cc1ccc([N+](=O)[O-])cc1)NC(=O)CN(C)C(=O)[C@@H](N)Cc1ccc(O)cc1)C(=O)N[C@H](CCCNC(=N)N)C(=O)N[C@@H](CCCNC(=N)N)C(N)=O [SEQ ID NO. 5, NH2-Tyr-Sar-(4-NO2)Phe-Leu-DArg-Arg-NH2] (H-Y[Sar][Phe(4-NO2)]L[dR]R-NH2)"
result = 43.14

[[record]]
compound = "CC(C)C[C@H](NC(=O)[C@H](Cc1ccccc1)NC(=O)CN(C)C(=O)[C@@H](N)Cc1ccc(O)cc1)C(=O)N[C@H](CCCNC(=N)N)C(=O)N[C@H](CCCNC(=N)N)C(N)=O [SEQ ID NO. 7, NH2-Tyr-Sar-Phe-Leu-DArg-DArg-NH2] (H-Y[Sar]FL[dR][dR]-NH2)"
result = 36.03

[[record]]
compound = "CC(C)C[C@H](NC(=O)[C@H](Cc1ccc([N+](=O)[O-])cc1)NC(=O)CN(C)C(=O)[C@@H](N)Cc1ccc(O)cc1)C(=O)N[C@@H](CCCNC(=N)N)C(=O)N[C@H](CCCNC(=N)N)C(N)=O [SEQ ID NO. 4, NH2-Tyr-Sar-(4-NO2)Phe-Leu-Arg-DArg-NH2] (H-Y[Sar][Phe(4-NO2)]LR[dR]-NH2)"
result = 40.29


Okay, next one:
Name the recorded cAMP assay KOR 10 μM for CC(C)C[C@H](NC(=O)[C@H](Cc1ccccc1)NC(=O)CN(C)C(=O)[C@@H](N)Cc1ccc(O)cc1)C(=O)N[C@@H](CCCNC(=N)N)C(=O)N[C@H](CCCNC(=N)N)C(N)=O [SEQ ID NO. 3, NH2-Tyr-Sar-Phe-Leu-Arg-DArg-NH2] (H-Y[Sar]FLR[dR]-NH2) .
43.58

====

- targetEntity: bovine pancreatic trypsin (Bos taurus, UniProt P00760)
- Construct: from tissue; host or cells: bovine pancreas
- Sequence (P00760 24-246): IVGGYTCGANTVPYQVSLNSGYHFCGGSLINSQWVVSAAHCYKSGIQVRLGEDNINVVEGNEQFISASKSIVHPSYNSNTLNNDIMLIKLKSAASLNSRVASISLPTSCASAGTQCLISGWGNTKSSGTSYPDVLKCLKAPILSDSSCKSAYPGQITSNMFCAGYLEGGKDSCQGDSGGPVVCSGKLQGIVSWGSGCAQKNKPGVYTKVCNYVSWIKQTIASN
- assay: Stability in bovine trypsin
- Type: in vitro ADME
- conditionParameters: bovine pancreatic trypsin solution; bovine pancreatic trypsin 2.5 μg/mL, NH4HCO3 buffer pH 8-8.5, 37° C., 100 μM peptide
- Procedure: The stability of the peptides was analysed in typsin, plasma and water. Stability of linear peptides is generally low due to rapid degradation by endogenous peptidases and proteases. […] Stability in bovine trypsin was analysed for SEQ ID Nos. 2 to 7 and 11 to 17. […]
Square brackets hold non-standard residues; d marks the D form. Peptide text beside a SMILES is read from it. Phe(4-Cl) = N[C@@H](Cc1ccc(Cl)cc1)C(=O)O; NMeR = CN[C@@H](CCCNC(=N)N)C(=O)O; Sar = CNCC(=O)O
quantityMeasured: half-life at 100 µM (h)
Numeric only. Scale: h

Query for bovine pancreatic trypsin (Bos taurus, UniProt P00760): what half-life at 100 µM does the record show for CC(C)C[C@H](NC(=O)[C@H](Cc1ccc(Cl)cc1)NC(=O)CN(C)C(=O)[C@@H](N)Cc1ccc(O)cc1)C(=O)N(C)[C@@H](CCCNC(=N)N)C(=O)N[C@H](CCCNC(=N)N)C(N)=O [SEQ ID NO. 13, NH2-Tyr-Sar-(4-Cl)Phe-Leu-NMA-DArg-NH2] (H-Y[Sar][Phe(4-Cl)]L[NMeR][dR]-NH2) ?
4.6
